# pIC50 per entry
# Test Target: GST-tagged KRAS-G12D (2-169) (Homo sapiens, UniProt P01116, G12D)
# Sequence (P01116 2-169 isoform P01116-2 G12D): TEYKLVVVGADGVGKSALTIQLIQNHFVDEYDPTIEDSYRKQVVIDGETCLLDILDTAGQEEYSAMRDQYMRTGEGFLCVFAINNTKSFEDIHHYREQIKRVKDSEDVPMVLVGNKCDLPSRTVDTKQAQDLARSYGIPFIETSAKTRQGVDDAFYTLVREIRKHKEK
# Assay Name: Nucleotide exchange assay (NEA), SOS-mediated, HTRF, KRAS G12D
# Type: biochemical
# Applied Conditions: Table 4; IC50 extracted at 30 min; 20 nM SOScat; read-out: NEA G12D IC50
pIC50: −log10 of the molar value.

Consider the following illustrative entries.
Looking for the measured pIC50 of CC(c1cccnc1N)N(C)c1nc(OCC2(CN3CCOCC3)CC2)nc(N2CC3(CCc4sc(N)c(C#N)c43)C2)n1 (stereo not drawn) , can you help?
7.00 to 8.00

Let us now turn to CN(CC1(C#N)CC1)c1nc(OC[C@@]23CCCN2C[C@H](F)C3)nc(N2CC3(CCc4sc(N)c(C#N)c43)C2)n1
6.00 to 7.00

Let us now turn to N#Cc1c(N)sc2c1C1(CCC2)CN(c2nc(OCC3(C#N)CC3)nc(OC[C@@]34CCCN3C[C@H](F)C4)n2)C1
6.00 to 7.00

Let us now turn to C[C@H](c1cccnc1N)N(CC(F)F)c1nc(OC[C@@]23CCCN2C[C@H](F)C3)nc(N2CC3(C2)SCc2sc(N)c(C#N)c23)n1
> 8.00

Let us now turn to CCN(c1nc(OC[C@@H]2CC[C@@H]3CN(C)CCN32)nc(N2CC3(C2)SCc2sc(N)c(C#N)c23)n1)[C@H](C)c1cccnc1N (mixture of isomers)
6.00 to 7.00

Continuing:
Looking for the measured pIC50 of N#Cc1c(N)sc2c1C1(CC2)CN(c2nc(OC[C@@]34CCCN3C[C@H](F)C4)nc(N3CCCCC3C(N)=O)n2)C1 (stereo partly drawn) , can you help?
6.00 to 7.00

Let us now turn to CC(c1cncnc1O)N(C)c1nc(OC[C@@]23CCCN2C[C@H](F)C3)nc(N2CC3(CCc4sc(N)c(C#N)c43)C2)n1 (stereo partly drawn)
4.70 to 6.00

Let us now turn to CN(c1nc(OC[C@@]23CCCN2C[C@H](F)C3)nc(N2CC3(CCc4sc(N)c(C#N)c43)C2)n1)C1CCOC1 (stereo partly drawn)
6.00 to 7.00
